aptazyme ON/OFF ratio: recorded values
B1: Pistol ribozyme (parent)
chain: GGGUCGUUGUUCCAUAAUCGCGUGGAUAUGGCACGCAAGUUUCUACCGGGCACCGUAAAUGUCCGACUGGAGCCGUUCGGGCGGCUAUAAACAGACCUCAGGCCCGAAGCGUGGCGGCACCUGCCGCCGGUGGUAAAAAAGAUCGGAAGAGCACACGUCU

Variants of: B1
protocol notes: aptazyme ON/OFF ratio, guanine; higher = stronger switching; co-transcriptional cleavage with and without guanine
I'd appreciate a reply containing only the number, no unit.

Look over these answered cases.
INSERT INTO results (mutation_annotation, number) VALUES
  ('U7A U8C G9U U10C U11C C12U C13A', 1.05),
  ('U8C G9U U11A C13G', 1.03),
  ('U7C U8C G9A U11A C13A', 1.26),
  ('U7C U8G C12G C13A', 1.09),
  ('U7C G9C U11C C12G C13U', 1.04),
  ('U7A U8G U11G C12U C13G', 1.29),
  ('U8C G9A U10C U11C C13U', 1.01),
  ('U7A U8G G9C U10G U11G C12G C13U', 1.14),
  ('U7G U8G G9C U10G U11C C12G C13A', 1.19),
  ('U7A U8G G9A U10C U11C C13U', 1.03);

stdin: Consider the variant U7A U8C G9A U11G C12G C13G . State its measured aptazyme ON/OFF ratio.
stdout: 1.31

stdin: Consider the variant U7A U8G G9U U10C U11A C13U . State its measured aptazyme ON/OFF ratio.
stdout: 1.33

stdin: Consider the variant U7C U8C G9C U11A C12U C13U . State its measured aptazyme ON/OFF ratio.
stdout: 1.11

stdin: Consider the variant G9C U10C U11G C12U . State its measured aptazyme ON/OFF ratio.
stdout: 1.07

stdin: Consider the variant U7A U8C U10C U11A C12G C13U . State its measured aptazyme ON/OFF ratio.
stdout: 1.21

stdin: Consider the variant U7G U8C G9A U10A C12G . State its measured aptazyme ON/OFF ratio.
stdout: 1.24

stdin: Consider the variant U8C U10G U11C C12G . State its measured aptazyme ON/OFF ratio.
stdout: 1.78

stdin: Consider the variant U7G U8A U10G U11G C12U . State its measured aptazyme ON/OFF ratio.
stdout: 1.26

stdin: Consider the variant U7G U8G G9C U10A U11A C12U C13A . State its measured aptazyme ON/OFF ratio.
stdout: 1.08

stdin: Consider the variant U7C U8G G9A U10C U11C C12A C13G . State its measured aptazyme ON/OFF ratio.
stdout: 1.04

stdin: Consider the variant U7G U10A U11A C12U C13A . State its measured aptazyme ON/OFF ratio.
stdout: 1.09

stdin: Consider the variant U7A U8C G9U U11A C12G . State its measured aptazyme ON/OFF ratio.
stdout: 1.23

stdin: Consider the variant U8A G9C U10A U11G . State its measured aptazyme ON/OFF ratio.
stdout: 1.3

stdin: Consider the variant U7C U8A U11C C12U . State its measured aptazyme ON/OFF ratio.
stdout: 1.44

stdin: Consider the variant U7A U8A G9A U10A U11A C12G C13U . State its measured aptazyme ON/OFF ratio.
stdout: 1.13

stdin: Consider the variant U7G U8C G9U U11A C12G C13G . State its measured aptazyme ON/OFF ratio.
stdout: 1.13

stdin: Consider the variant U7G U8G G9U U10C C12U . State its measured aptazyme ON/OFF ratio.
stdout: 1.28

stdin: Consider the variant U7C U8A G9C U10C U11G C12G . State its measured aptazyme ON/OFF ratio.
stdout: 1.09
